# System: c-kit (Homo sapiens)
# Construct: human Mo7e cells which endogenously express c-kit; endogenous in cells; host or cells: human Mo7e cells (SCF-dependent promegakaryocytic leukemia line)
# Sequence (P10721 26-976): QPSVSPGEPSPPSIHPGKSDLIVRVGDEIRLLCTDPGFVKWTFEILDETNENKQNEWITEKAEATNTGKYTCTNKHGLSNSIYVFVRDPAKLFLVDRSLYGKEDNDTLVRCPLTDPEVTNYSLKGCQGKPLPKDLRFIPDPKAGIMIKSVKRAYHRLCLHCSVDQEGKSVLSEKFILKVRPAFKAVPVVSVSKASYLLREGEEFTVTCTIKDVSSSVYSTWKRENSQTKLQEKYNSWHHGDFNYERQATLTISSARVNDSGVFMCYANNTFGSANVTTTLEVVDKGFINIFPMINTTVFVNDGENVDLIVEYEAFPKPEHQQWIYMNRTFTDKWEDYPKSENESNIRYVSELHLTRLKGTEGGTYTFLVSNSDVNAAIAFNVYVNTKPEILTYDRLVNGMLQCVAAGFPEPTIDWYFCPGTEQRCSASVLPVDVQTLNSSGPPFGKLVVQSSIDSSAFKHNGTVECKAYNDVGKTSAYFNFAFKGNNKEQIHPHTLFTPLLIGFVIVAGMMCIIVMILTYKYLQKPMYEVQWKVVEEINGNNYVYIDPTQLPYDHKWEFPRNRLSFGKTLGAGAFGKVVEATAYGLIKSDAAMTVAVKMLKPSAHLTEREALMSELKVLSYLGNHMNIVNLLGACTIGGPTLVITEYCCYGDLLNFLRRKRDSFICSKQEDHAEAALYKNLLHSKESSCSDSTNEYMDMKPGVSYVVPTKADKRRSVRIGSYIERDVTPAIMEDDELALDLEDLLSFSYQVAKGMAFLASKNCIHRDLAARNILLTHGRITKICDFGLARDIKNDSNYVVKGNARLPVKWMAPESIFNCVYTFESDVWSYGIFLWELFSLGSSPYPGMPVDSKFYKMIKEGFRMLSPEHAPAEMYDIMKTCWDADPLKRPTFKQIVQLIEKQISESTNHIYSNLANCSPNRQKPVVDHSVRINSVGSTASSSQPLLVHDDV
# Experiment: Mo7e cell proliferation assay (SCF dependent proliferation)
# Format: cell-based
# Run parameters: Table 1; human Mo7e cells stimulated with human recombinant SCF, 48 h, CellTiter Glo; 1% FBS (footnote)
Rule: measured IC50 below 0.06 µM gets Y; anything equal to or greater than 0.06 µM gets N.

Molecule: Cc1ccc(-c2noc(CC[C@@](C)(O)C(F)(F)F)n2)cc1NC(=O)c1cnc2ccc(F)cn12 [F88]
System: c-kit (Homo sapiens)
Assigned category: Y

Molecule: Cc1ccc(-c2noc(CNC(=O)OCC(F)F)n2)cc1NC(=O)c1cnc2ccccn12 [F40]
System: c-kit (Homo sapiens)
Assigned category: N

Molecule: Cc1ccn2c(C(=O)Nc3cc(-c4noc(NCC(C)C)n4)ccc3C)cnc2c1 [F69]
System: c-kit (Homo sapiens)
Assigned category: Y

Molecule: Cc1ccn2c(C(=O)Nc3cc(-c4noc(COCC(F)(F)F)n4)ccc3C)cnc2c1 [F77]
System: c-kit (Homo sapiens)
Assigned category: Y

Molecule: COP(=O)(OC)OC(C)(CCc1nc(-c2ccc(C)c(NC(=O)c3cnc4cc(C)ccn34)c2)no1)C(F)(F)F (single isomer, unassigned) [F267]
System: c-kit (Homo sapiens)
Assigned category: Y

Molecule: Cc1ccc(-c2noc(CCC(C)(C)O)n2)cc1NC(=O)c1cnc2ccccn12 [F8]
System: c-kit (Homo sapiens)
Assigned category: N

Molecule: Cc1ccc(-c2noc(CCC(C)(C)O)n2)cc1NC(=O)c1cnc2cc(C3CC3)ccn12 [F64]
System: c-kit (Homo sapiens)
Assigned category: Y

Molecule: Cc1ccc(-c2noc(CNC(=O)CC(F)(F)F)n2)cc1NC(=O)c1cnc2ccccn12 [F35]
System: c-kit (Homo sapiens)
Assigned category: Y

Molecule: CCOC(=O)c1nc(C)c(-c2ccc3ncc(C(=O)Nc4cc(-c5noc(C)n5)ccc4C)n3c2)s1 [F261]
System: c-kit (Homo sapiens)
Assigned category: N

Molecule: Cc1ccc(-c2noc([C@H](C)NC(=O)OC(C)(C)C)n2)cc1NC(=O)c1cnc2ccccn12 [F13]
System: c-kit (Homo sapiens)
Assigned category: N

Molecule: COc1ccncc1-c1ccc2ncc(C(=O)Nc3cc(-c4noc(C)n4)ccc3C)n2c1 [F102]
System: c-kit (Homo sapiens)
Assigned category: N

Molecule: COc1ccc2ncc(C(=O)Nc3cc(-c4noc(CCC(C)(C)O)n4)ccc3C)n2c1 [F56]
System: c-kit (Homo sapiens)
Assigned category: N

Molecule: Cc1ccc(-c2noc(CC(O)(C(F)(F)F)C(F)(F)F)n2)cc1NC(=O)c1cnc2ccccn12 [F16]
System: c-kit (Homo sapiens)
Assigned category: Y

Molecule: COP(=O)(OC)OC(C)(CCc1nc(-c2ccc(C)c(NC(=O)c3cnc4cc(C)ccn34)c2)no1)C(F)(F)F (single isomer, unassigned) [F269]
System: c-kit (Homo sapiens)
Assigned category: Y

Molecule: Cc1nc(-c2ccc(C)c(NC(=O)c3cnc4ccc(-c5cnn(CC(C)(C)O)c5)cn34)c2)no1 [F45]
System: c-kit (Homo sapiens)
Assigned category: Y
